The reported numbers originate from ChEMBL document CHEMBL3817777.

Exercise: state measured EC50 for each of the molecules provided.
Assay: Cytotoxicity against human ALMC2 cells after 48 hrs by MTT assay
Type: functional, cell-based
Settings: ALMC2, 48 h
Please give a number only; it is taken to be in µM.

For CC(C)=CCC/C(C)=C/CC(P(=O)(OCC[C@@H](C)CCC=C(C)C)OCOC(=O)C(C)(C)C)P(=O)(OCOC(=O)C(C)(C)C)OCOC(=O)C(C)(C)C (stereo not given in full) the molecule record lists EC50 as 12.6

In plain terms, C=CCC(C/C=C(\C)CCC=C(C)C)(P(=O)(OCC[C@@H](C)CCC=C(C)C)OCOC(=O)C(C)(C)C)P(=O)(OCOC(=O)C(C)(C)C)OCOC(=O)C(C)(C)C (stereo not given in full) has a documented EC50 of 25.4

// recorded EC50 for CC(C)=CCC/C(C)=C/CC(C)(P(=O)(OCC[C@@H](C)CCC=C(C)C)OCOC(=O)C(C)(C)C)P(=O)(OCOC(=O)C(C)(C)C)OCOC(=O)C(C)(C)C (stereo not given in full) : 5.4

response.value for CC(C)=CCC/C(C)=C/CC(CC=C(C)C)(P(=O)(OCC[C@@H](C)CCC=C(C)C)OCOC(=O)C(C)(C)C)P(=O)(OCOC(=O)C(C)(C)C)OCOC(=O)C(C)(C)C (stereo not given in full) (field: EC50) = 28.2

---

Assay: Cytotoxicity against human MM1S cells after 48 hrs by MTT assay
Assay type: functional, cell-based
Conditions: MM1.S
pEC50: −log10 of the molar value.
Answer -1 if pEC50 is under 5, and 1 if it is 5 or more.

### Prompt Hi team, for CC(C)=CCC/C(C)=C/CC(CC=C(C)C)(P(=O)(OCC[C@@H](C)CCC=C(C)C)OCOC(=O)C(C)(C)C)P(=O)(OCOC(=O)C(C)(C)C)OCOC(=O)C(C)(C)C (stereo not given in full) , is the recorded pEC50 at or above 5?
### Response -1

### Prompt Is the recorded value of pEC50 equal to or greater than 5 for this compound? CC(C)=CCC/C(C)=C/CC(C/C=C(\C)CCC=C(C)C)(P(=O)(OCC[C@@H](C)CCC=C(C)C)OCOC(=O)C(C)(C)C)P(=O)(OCOC(=O)C(C)(C)C)OCOC(=O)C(C)(C)C (stereo not given in full)
### Response -1

### Prompt For this compound, is measured pEC50 5 or higher? CC(C)=CCC/C(C)=C/CC(C)(P(=O)(OCC[C@@H](C)CCC=C(C)C)OCOC(=O)C(C)(C)C)P(=O)(OCOC(=O)C(C)(C)C)OCOC(=O)C(C)(C)C (stereo not given in full)
### Response 1

### Prompt Please check the record CC(C)=CCC/C(C)=C/CC(P(=O)(OCC[C@@H](C)CCC=C(C)C)OCOC(=O)C(C)(C)C)P(=O)(OCOC(=O)C(C)(C)C)OCOC(=O)C(C)(C)C (stereo not given in full) and state if its pEC50 is at or above 5.
### Response 1

---

Assay: Cytotoxicity against human RPMI8266 cells after 48 hrs by MTT assay
Type: functional, cell-based
Conditions: RPMI8266, 48 h
Kindly supply the reported log10(EC50) values for the records listed here.
Lab note - EC50 converted to log10 from values in µM.

Value of measured log10(EC50) for the entry CC(C)=CCC/C(C)=C/CC(CC=C(C)C)(P(=O)(OCC[C@@H](C)CCC=C(C)C)OCOC(=O)C(C)(C)C)P(=O)(OCOC(=O)C(C)(C)C)OCOC(=O)C(C)(C)C (stereo not given in full) : 0.86

Note to self: log10(EC50) recorded for CC(C)=CCC/C(C)=C/CC(P(=O)(OCC[C@@H](C)CCC=C(C)C)OCOC(=O)C(C)(C)C)P(=O)(OCOC(=O)C(C)(C)C)OCOC(=O)C(C)(C)C (stereo not given in full) was 0.85

get_value(item= CC(C)=CCC/C(C)=C/CC(C/C=C(\C)CCC=C(C)C)(P(=O)(OCC[C@@H](C)CCC=C(C)C)OCOC(=O)C(C)(C)C)P(=O)(OCOC(=O)C(C)(C)C)OCOC(=O)C(C)(C)C (stereo not given in full) , readout=log10(EC50)) returns 1.43

Note to self: log10(EC50) recorded for CC(C)=CCC/C(C)=C/CC(C)(P(=O)(OCC[C@@H](C)CCC=C(C)C)OCOC(=O)C(C)(C)C)P(=O)(OCOC(=O)C(C)(C)C)OCOC(=O)C(C)(C)C (stereo not given in full) was 0.20

In plain terms, C=CCC(C/C=C(\C)CCC=C(C)C)(P(=O)(OCC[C@@H](C)CCC=C(C)C)OCOC(=O)C(C)(C)C)P(=O)(OCOC(=O)C(C)(C)C)OCOC(=O)C(C)(C)C (stereo not given in full) has a documented log10(EC50) of 0.92
